- target-desc: human NK2 receptor (Homo sapiens, UniProt P21452)
- assay-name: [3H]SR48968 competition binding assay
- measurement-context: [3H]SR48968 displacement, membranes of CHO cells stably expressing recombinant human NK2 receptor; Ki from IC50 by Cheng-Prussoff
Field: class. Source value: Ki. Ranges: low interval (below 3 nM), middle interval (3 nM to below 30 nM), high interval (30 nM or more)

Example entries begin here.
COc1ccc(C(=O)N(C)[C@H]2CN(C(=O)C3CCN(S(=O)(=O)C4CC4)CC3)C[C@@H]2c2ccc(Cl)c(Cl)c2)cc1C(F)(F)F (racemic) : low interval
COc1ccc(C(=O)N(C)[C@@H]2CN(C(=O)c3ccc(C(C)=O)cc3)C[C@H]2c2ccc(Cl)c(Cl)c2)cc1C(F)(F)F (racemic) : low interval

Please examine the following record next.
Consider COc1ccc(C(=O)N(C)[C@@H]2CN(C(=O)c3cccc(S(C)(=O)=O)c3)C[C@H]2c2ccc(Cl)c(Cl)c2)cc1C(F)(F)F (racemic) . To which Ki class does it belong? middle interval

----------
- target-desc: human NK2 receptor (Homo sapiens, UniProt P21452)
- Sequence (P21452 1-398): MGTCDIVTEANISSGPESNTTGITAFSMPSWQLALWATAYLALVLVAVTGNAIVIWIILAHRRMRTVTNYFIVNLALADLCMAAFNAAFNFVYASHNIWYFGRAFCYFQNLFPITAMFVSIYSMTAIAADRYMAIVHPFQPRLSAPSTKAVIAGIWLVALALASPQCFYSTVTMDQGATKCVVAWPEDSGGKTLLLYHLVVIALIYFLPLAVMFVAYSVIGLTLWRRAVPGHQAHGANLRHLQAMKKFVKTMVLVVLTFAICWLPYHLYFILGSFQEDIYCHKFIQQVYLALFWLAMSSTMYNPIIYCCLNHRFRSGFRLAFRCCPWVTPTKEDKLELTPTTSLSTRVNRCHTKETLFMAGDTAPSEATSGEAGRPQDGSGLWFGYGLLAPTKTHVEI
- assay-name: [3H]SR48968 competition binding assay
- measurement-context: [3H]SR48968 displacement, membranes of CHO cells stably expressing recombinant human NK2 receptor; Ki from IC50 by Cheng-Prussoff
measurement-label: pKi
Scale: pKi equals -log10([C]), with [C] in mol/L.

// known answers, use as guide
CCOCc1ccc(C(=O)N(C)[C@@H]2CN(C(=O)c3ccc(C#N)cc3)C[C@H]2c2ccc(Cl)c(Cl)c2)nc1 (racemic) : 7.52
COc1ccc(C(=O)N(C)[C@H]2CN(C(=O)C3CCN(CCC#N)CC3)C[C@@H]2c2ccc(Cl)c(Cl)c2)cc1C(F)(F)F (racemic) : 9.40

Returns the measured pKi for the input compound. Input: CN(C(=O)c1ccc(Cl)cn1)[C@H]1CN(C(=O)C2CCN(C(=O)C3(C)CC3)CC2)C[C@@H]1c1ccc(Cl)c(Cl)c1 (racemic) 8.59

What about this compound? COc1ccc(C(=O)N(C)[C@H]2CN(C(=O)C3CCN(C(=O)C4(C)CC4)CC3)C[C@@H]2c2ccc(Cl)c(Cl)c2)cc1C(F)(F)F (racemic) 9.10

Let us now turn to COc1ccc(C(=O)N(C)[C@@H]2CN(C(=O)N3CCN(S(C)(=O)=O)CC3)C[C@H]2c2ccc(Cl)c(Cl)c2)cc1 (racemic) 8.05

Same question, CC(C(=O)N(C)[C@H]1CN(C(=O)C2CCN(CC3CC3)CC2)C[C@@H]1c1ccc(Cl)c(Cl)c1)c1ccc(F)cc1 (mixture of isomers) this time 7.36

Next compound: COc1ccc(C(=O)N(C)[C@@H]2CN(C(=O)c3cc(S(C)(=O)=O)ccc3F)C[C@H]2c2ccc(Cl)c(Cl)c2)cc1C(F)(F)F (racemic) 8.60

----------
- target-desc: human NK2 receptor (Homo sapiens, UniProt P21452)
- Sequence (P21452 1-398): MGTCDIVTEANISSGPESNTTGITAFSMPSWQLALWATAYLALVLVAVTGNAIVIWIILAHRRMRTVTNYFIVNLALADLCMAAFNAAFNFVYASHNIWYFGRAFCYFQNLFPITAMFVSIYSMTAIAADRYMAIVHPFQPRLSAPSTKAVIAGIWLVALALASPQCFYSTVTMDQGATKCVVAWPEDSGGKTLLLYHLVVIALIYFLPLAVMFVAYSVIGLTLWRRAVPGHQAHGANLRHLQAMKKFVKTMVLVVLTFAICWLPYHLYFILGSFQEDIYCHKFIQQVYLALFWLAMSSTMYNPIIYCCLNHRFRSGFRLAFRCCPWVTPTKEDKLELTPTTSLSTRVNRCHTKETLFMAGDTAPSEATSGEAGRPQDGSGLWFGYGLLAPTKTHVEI
- assay-name: [3H]SR48968 competition binding assay
- measurement-context: [3H]SR48968 displacement, membranes of CHO cells stably expressing recombinant human NK2 receptor; Ki from IC50 by Cheng-Prussoff
As shown below, each of these molecules has a reported pKi value.
Value format note: pKi is -log10 of concentration (mol/L); just state the number.

Examples with their reported pKi follow.
CN(C(=O)c1cc(F)cc(C(F)(F)F)c1)[C@@H]1CN(C(=O)N2CCN(S(C)(=O)=O)CC2)C[C@H]1c1ccc(Cl)c(Cl)c1 (racemic) : 7.68
CN(C(=O)c1cccc(Cl)c1F)[C@@H]1CN(C(=O)N2CCN(S(C)(=O)=O)CC2)C[C@H]1c1ccc(Cl)c(Cl)c1 (racemic) : 7.88

Here is another molecule to look at.
Which pKi value belongs to COc1ccc(C(=O)N(C)[C@H]2CN(C(=O)C3CCN(C(=O)OC(C)(C)C)CC3)C[C@@H]2c2ccc(Cl)cc2)cc1C(F)(F)F (racemic) ? 8.66

----------
Collected pKi values appear next to each entry.
- target-desc: human NK2 receptor (Homo sapiens, UniProt P21452)
- assay-name: [3H]SR48968 competition binding assay
- measurement-context: [3H]SR48968 displacement, membranes of CHO cells stably expressing recombinant human NK2 receptor; Ki from IC50 by Cheng-Prussoff
Schema: pKi number; meaning minus log10 of the concentration expressed in molar units.

Some compounds with known pKi results, for comparison:
CN(C(=O)c1ccc(F)c(F)c1)[C@@H]1CN(C(=O)N2CCN(S(C)(=O)=O)CC2)C[C@H]1c1ccc(Cl)c(Cl)c1 (racemic) [Example 27] : 7.79
CCc1ccc(C(=O)N(C)[C@@H]2CN(C(=O)N3CCN(S(C)(=O)=O)CC3)C[C@H]2c2ccc(Cl)c(Cl)c2)cc1 (racemic) [Example 14] : 8.93
CC(C)C(C(=O)N(C)[C@H]1CN(C(=O)C2CCN(C(=O)C3(C)CC3)CC2)C[C@@H]1c1ccc(Cl)c(Cl)c1)c1ccc(F)cc1 (mixture of isomers) [Example 116] : 7.30
CN(C(=O)c1ccc(F)c(OC(F)(F)F)c1)[C@H]1CN(C(=O)C2CCN(C(=O)C3(C)CC3)CC2)C[C@@H]1c1ccc(Cl)c(Cl)c1 (racemic) [Example 98] : 9.05

As a next step, examine the compound that follows.
Find pKi (human NK2 receptor (Homo sapiens, UniProt P21452)) for the entry CN(C(=O)c1ccc(C(F)(F)F)c(F)c1)[C@@H]1CN(C(=O)N2CCN(S(C)(=O)=O)CC2)C[C@H]1c1ccc(Cl)c(Cl)c1 (racemic) [Example 20] 8.61

----------
- target-desc: human NK2 receptor (Homo sapiens, UniProt P21452)
- assay-name: [3H]SR48968 competition binding assay
- measurement-context: [3H]SR48968 displacement, membranes of CHO cells stably expressing recombinant human NK2 receptor; Ki from IC50 by Cheng-Prussoff
measurement-label: pKi
Note on pKi: it is the negative log10 of concentration, concentration in mol/L.

Guide cases for pKi, answers given:
COc1ccc(C(=O)N2C[C@@H](N(C)C(=O)c3ccc(OC)c(C(F)(F)F)c3)[C@H](c3ccc(Cl)c(Cl)c3)C2)cc1 (racemic) : 8.37
CN(C(=O)c1ccc(Cl)c(C(F)(F)F)c1)[C@H]1CN(C(=O)C2CCN(CC#N)CC2)C[C@@H]1c1ccc(Cl)cc1 (racemic) : 8.43
COc1ccc(C(=O)N2C[C@@H](N(C)C(=O)c3ccc(OC)c(C(F)(F)F)c3)[C@H](c3ccc(Cl)c(Cl)c3)C2)cc1C (racemic) : 8.69
COc1ccc(C(=O)N(C)[C@H]2CN(C(=O)c3ccc(C#N)cc3)C[C@@H]2c2ccc(Cl)cc2)cc1C(F)(F)F (racemic) : 7.86
CC(C#N)c1cccc(C(=O)N(C)[C@@H]2CN(C(=O)N3CCN(S(C)(=O)=O)CC3)C[C@H]2c2ccc(Cl)c(Cl)c2)c1 (mixture of isomers) : 7.55
CN(C)c1ccc(C(=O)N(C)[C@@H]2CN(C(=O)N3CCN(S(C)(=O)=O)CC3)C[C@H]2c2ccc(Cl)c(Cl)c2)cc1 (racemic) : 8.76
CN(C(=O)c1ccc(OC(F)(F)F)cc1)[C@@H]1CN(C(=O)N2CCN(S(C)(=O)=O)CC2)C[C@H]1c1ccc(Cl)c(Cl)c1 (racemic) : 8.29
CN(C(=O)Cc1ccc(F)cc1)[C@@H]1CN(C(=O)C2CCN(C(=O)C3(C)CC3)CC2)C[C@H]1c1ccc(Cl)c(Cl)c1 : 7.95

Look at this molecule and give its reported pKi. COc1ccc(C(=O)N(C)[C@@H]2CN(C(=O)c3cc(C)cc(C)c3)C[C@H]2c2ccc(Cl)c(Cl)c2)cc1C(F)(F)F (racemic) 8.02

Field entry: COc1ccc(C(=O)N(C)[C@H]2CN(C(=O)c3ccc(C#N)nc3)C[C@@H]2c2ccc(Cl)cc2)cc1C(F)(F)F (racemic) 7.93

// query: COc1ccc(C(=O)N(C)[C@H]2CN(C(=O)C3CCN(C(C)C)CC3)C[C@@H]2c2ccc(Cl)cc2)cc1C(F)(F)F (racemic) 8.39

Let us now turn to COc1ccc(C(=O)N(C)[C@H]2CN(C(=O)C3CCN(CC4CC4)CC3)C[C@@H]2c2ccc(Cl)c(Cl)c2)cc1C(F)(F)F (racemic) 9.30
